# Measurement description: Stability of the analytes in rat plasma QC samples under different storage conditions
# Assay type: physicochemical
# Particulars: high QC, −20 °C for 2 weeks, n = 6
Property measured: Stability (RE%) Long-Term
Provide only the numeric value, understood in %.

Ask: So what does the record say about Stability (RE%) Long-Term for O=C(O)c1ccc(O)c(O)c1 [3,4-Dihydroxy benzoic acid, 3,4-dihydroxybenzoic acid] ?
Reply: 3.65

Ask: So what does the record say about Stability (RE%) Long-Term for O=C(O)/C=C/c1ccc(O)c(O)c1 ?
Reply: −1.54

Ask: So what does the record say about Stability (RE%) Long-Term for COc1cc(C(=O)O)ccc1O ?
Reply: −0.32

Ask: So what does the record say about Stability (RE%) Long-Term for O=C(O)c1ccc(O)cc1 [4-Hydroxy benzoic acid, 4-hydroxybenzoic acid] ?
Reply: 2.81

Ask: So what does the record say about Stability (RE%) Long-Term for COc1cc(/C=C/C(=O)O)ccc1O ?
Reply: −1.89

Ask: So what does the record say about Stability (RE%) Long-Term for O=C(O)/C=C/c1ccc(O)cc1 ?
Reply: −5.30

Ask: So what does the record say about Stability (RE%) Long-Term for COc1cc(C(=O)O)cc(OC)c1O ?
Reply: −1.30

---

For each of the compounds below, state its Stability (RE%) Freeze-Thaw.
# Measurement description: Stability of the analytes in rat plasma QC samples under different storage conditions
# Assay type: physicochemical
# Particulars: low QC, three freeze-thaw cycles (−20 °C / ambient), n = 6
Provide a numeric answer, followed by its unit.

Ask: So what does the record say about Stability (RE%) Freeze-Thaw for COc1cc(/C=C/C(=O)O)ccc1O [Ferulic acid, ferulic acid] ?
Reply: −7.10%

Ask: So what does the record say about Stability (RE%) Freeze-Thaw for O=C(O)/C=C/c1ccc(O)cc1 [p-Coumaric acid, p-coumaric acid] ?
Reply: −7.57%

Ask: So what does the record say about Stability (RE%) Freeze-Thaw for O=C(O)c1ccc(O)c(O)c1 [3,4-Dihydroxy benzoic acid, 3,4-dihydroxybenzoic acid] ?
Reply: −0.11%

Ask: So what does the record say about Stability (RE%) Freeze-Thaw for O=C(O)c1ccc(O)cc1 [4-Hydroxy benzoic acid, 4-hydroxybenzoic acid] ?
Reply: 10.03%

Ask: So what does the record say about Stability (RE%) Freeze-Thaw for O=C(O)/C=C/c1ccc(O)c(O)c1 [Caffeic acid, caffeic acid] ?
Reply: 7.79%

Ask: So what does the record say about Stability (RE%) Freeze-Thaw for COc1cc(C(=O)O)cc(OC)c1O [Syringic acid, syringic acid] ?
Reply: −3.75%

Ask: So what does the record say about Stability (RE%) Freeze-Thaw for COc1cc(C(=O)O)ccc1O [Vanillic acid, vanillic acid] ?
Reply: −6.56%

---

# Measurement description: Pharmacokinetic study of seven phenolic acids in rat plasma after oral administration of E. purpurea extract (UHPLC-ESI-MS/MS)
# Type: in vivo
# Particulars: Sprague-Dawley, rat, male SD rats, oral E. purpurea extract 10 g/kg, n = 12, mean ± SD
Think of 3000 ng·h/mL as a floor: if AUC(0-inf) stands on it or above, it is y; beneath it, n.

Ask: Exam item: decide whether the reported AUC(0-inf) for O=C(O)/C=C/c1ccc(O)cc1 is at least 3000 ng·h/mL.
Reply: y

Ask: Exam item: decide whether the reported AUC(0-inf) for COc1cc(C(=O)O)cc(OC)c1O is at least 3000 ng·h/mL.
Reply: n

Ask: Exam item: decide whether the reported AUC(0-inf) for COc1cc(C(=O)O)ccc1O is at least 3000 ng·h/mL.
Reply: y

Ask: Exam item: decide whether the reported AUC(0-inf) for O=C(O)c1ccc(O)c(O)c1 [3,4-Dihydroxy benzoic acid, 3,4-dihydroxybenzoic acid] is at least 3000 ng·h/mL.
Reply: n

Ask: Exam item: decide whether the reported AUC(0-inf) for O=C(O)/C=C/c1ccc(O)c(O)c1 is at least 3000 ng·h/mL.
Reply: y

Ask: Exam item: decide whether the reported AUC(0-inf) for O=C(O)c1ccc(O)cc1 [4-Hydroxy benzoic acid, 4-hydroxybenzoic acid] is at least 3000 ng·h/mL.
Reply: n

Ask: Exam item: decide whether the reported AUC(0-inf) for COc1cc(/C=C/C(=O)O)ccc1O is at least 3000 ng·h/mL.
Reply: y

---

For each of the compounds below, state its Stability (RE%) Short-Term.
# Measurement description: Stability of the analytes in rat plasma QC samples under different storage conditions
# Format: physicochemical
# Particulars: low QC, 4 h at room temperature, n = 6
Provide only the numeric value, understood in %.

Ask: So what does the record say about Stability (RE%) Short-Term for COc1cc(/C=C/C(=O)O)ccc1O ?
Reply: −4.21

Ask: So what does the record say about Stability (RE%) Short-Term for COc1cc(C(=O)O)ccc1O ?
Reply: 2.24

Ask: So what does the record say about Stability (RE%) Short-Term for O=C(O)/C=C/c1ccc(O)c(O)c1 ?
Reply: 7.45

Ask: So what does the record say about Stability (RE%) Short-Term for O=C(O)c1ccc(O)cc1 [4-Hydroxy benzoic acid, 4-hydroxybenzoic acid] ?
Reply: 10.62

Ask: So what does the record say about Stability (RE%) Short-Term for O=C(O)/C=C/c1ccc(O)cc1 ?
Reply: −3.59

Ask: So what does the record say about Stability (RE%) Short-Term for O=C(O)c1ccc(O)c(O)c1 [3,4-Dihydroxy benzoic acid, 3,4-dihydroxybenzoic acid] ?
Reply: 2.03

Ask: So what does the record say about Stability (RE%) Short-Term for COc1cc(C(=O)O)cc(OC)c1O ?
Reply: −1.95

---

# Measurement description: Pharmacokinetic study of seven phenolic acids in rat plasma after oral administration of E. purpurea extract (UHPLC-ESI-MS/MS)
# Type: in vivo
# Particulars: Sprague-Dawley, rat, male SD rats, oral E. purpurea extract 10 g/kg, n = 12, mean ± SD
# Description: Twelve male Sprague-Dawley (SD) rats (body weight 220 ± 20 g) were provided by Heilongjiang University of Chinese Medicine (Harbin, China). Each rat fasted 12 h before administration, with free drinking during the experiment. […] The rat plasma concentration-time curves of seven compounds were plotted. […] The elimination rate constant (Ke) was calculated by linear regression of the terminal points in a semi-log plot of the plasma concentration against time. […]
Think of 200 ng/mL as a floor: if Cmax stands on it or above, it is y; beneath it, n.

Ask: Exam item: decide whether the reported Cmax for COc1cc(C(=O)O)cc(OC)c1O is at least 200 ng/mL.
Reply: n

Ask: Exam item: decide whether the reported Cmax for COc1cc(/C=C/C(=O)O)ccc1O is at least 200 ng/mL.
Reply: y

Ask: Exam item: decide whether the reported Cmax for O=C(O)/C=C/c1ccc(O)c(O)c1 is at least 200 ng/mL.
Reply: y

Ask: Exam item: decide whether the reported Cmax for O=C(O)c1ccc(O)cc1 [4-Hydroxy benzoic acid, 4-hydroxybenzoic acid] is at least 200 ng/mL.
Reply: n

Ask: Exam item: decide whether the reported Cmax for COc1cc(C(=O)O)ccc1O is at least 200 ng/mL.
Reply: y

Ask: Exam item: decide whether the reported Cmax for O=C(O)c1ccc(O)c(O)c1 [3,4-Dihydroxy benzoic acid, 3,4-dihydroxybenzoic acid] is at least 200 ng/mL.
Reply: n

Ask: Exam item: decide whether the reported Cmax for O=C(O)/C=C/c1ccc(O)cc1 is at least 200 ng/mL.
Reply: y

---

# Measurement description: Stability of the analytes in rat plasma QC samples under different storage conditions
# Format: physicochemical
# Particulars: high QC, 4 h at room temperature, n = 6
For each of the compounds below, state its Stability (RE%) Short-Term.
Provide only the numeric value, understood in %.

Ask: So what does the record say about Stability (RE%) Short-Term for O=C(O)/C=C/c1ccc(O)c(O)c1 ?
Reply: 6.12

Ask: So what does the record say about Stability (RE%) Short-Term for O=C(O)/C=C/c1ccc(O)cc1 ?
Reply: −4.81

Ask: So what does the record say about Stability (RE%) Short-Term for O=C(O)c1ccc(O)cc1 [4-Hydroxy benzoic acid, 4-hydroxybenzoic acid] ?
Reply: −2.50

Ask: So what does the record say about Stability (RE%) Short-Term for COc1cc(C(=O)O)ccc1O ?
Reply: 1.59

Ask: So what does the record say about Stability (RE%) Short-Term for COc1cc(/C=C/C(=O)O)ccc1O ?
Reply: −8.77

Ask: So what does the record say about Stability (RE%) Short-Term for O=C(O)c1ccc(O)c(O)c1 [3,4-Dihydroxy benzoic acid, 3,4-dihydroxybenzoic acid] ?
Reply: 4.80

Ask: So what does the record say about Stability (RE%) Short-Term for COc1cc(C(=O)O)cc(OC)c1O ?
Reply: −5.73

---

# Measurement description: Stability of the analytes in rat plasma QC samples under different storage conditions
# Assay type: physicochemical
# Particulars: post-preparation samples, high QC, 12 h at 4 °C, n = 6
For each of the molecules below, state its Stability (RE%) Post-Preparative.
Provide only the numeric value, understood in %.

Ask: So what does the record say about Stability (RE%) Post-Preparative for COc1cc(/C=C/C(=O)O)ccc1O ?
Reply: −4.91

Ask: So what does the record say about Stability (RE%) Post-Preparative for O=C(O)/C=C/c1ccc(O)c(O)c1 ?
Reply: 9.83

Ask: So what does the record say about Stability (RE%) Post-Preparative for O=C(O)c1ccc(O)cc1 [4-Hydroxy benzoic acid, 4-hydroxybenzoic acid] ?
Reply: 7.71

Ask: So what does the record say about Stability (RE%) Post-Preparative for COc1cc(C(=O)O)cc(OC)c1O ?
Reply: −6.08

Ask: So what does the record say about Stability (RE%) Post-Preparative for O=C(O)/C=C/c1ccc(O)cc1 ?
Reply: 7.12

Ask: So what does the record say about Stability (RE%) Post-Preparative for O=C(O)c1ccc(O)c(O)c1 [3,4-Dihydroxy benzoic acid, 3,4-dihydroxybenzoic acid] ?
Reply: −4.01

Ask: So what does the record say about Stability (RE%) Post-Preparative for COc1cc(C(=O)O)ccc1O ?
Reply: −8.03

Data origin, for the record: paper PMC6151385
